system: Adenosine receptor A1 (Rattus norvegicus, UniProt P25099)
Sequence (P25099 whole entry): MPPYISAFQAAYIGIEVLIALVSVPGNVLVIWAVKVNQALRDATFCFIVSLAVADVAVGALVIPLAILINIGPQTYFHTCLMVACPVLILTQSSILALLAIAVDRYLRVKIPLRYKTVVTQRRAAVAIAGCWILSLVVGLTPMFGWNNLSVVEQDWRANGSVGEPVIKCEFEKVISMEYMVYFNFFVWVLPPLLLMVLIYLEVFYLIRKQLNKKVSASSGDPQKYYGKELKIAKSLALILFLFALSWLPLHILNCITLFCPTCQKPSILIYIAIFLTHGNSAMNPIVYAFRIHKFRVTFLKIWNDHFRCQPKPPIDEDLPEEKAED
parameterMeasured: pKi
Note on pKi: it is the negative log10 of concentration, concentration in mol/L.

Provide the documented pKi with Adenosine receptor A1 (Rattus norvegicus, UniProt P25099) as the system for Nc1nc(SCCc2ccc(C(=O)O)cc2)nc2c1ncn2[C@@H]1O[C@H](CO)[C@@H](O)[C@H]1O
6.00

---

system: Adenosine receptor A2a (Homo sapiens)
assaySummary: Displacement of [3H]CGS21680 from human recombinant adenosine A2A receptor
Known Ki of a selection of molecules

Answered examples (3):
Entry Nc1nc(SCCc2ccc(C(=O)O)cc2)nc2c1ncn2[C@@H]1O[C@H](CO)[C@@H](O)[C@H]1O : reported Ki = ?
≥ 10 µM

Entry Nc1nc(SCCc2ccc(S(=O)(=O)O)cc2)nc2c1ncn2[C@@H]1O[C@H](CO)[C@@H](O)[C@H]1O : reported Ki = ?
0.36 µM

Entry Nc1nc(SCC(=O)O)nc2c1ncn2[C@@H]1O[C@H](CO)[C@@H](O)[C@H]1O : reported Ki = ?
> 10 µM

New cases:
Entry Nc1nc(S(=O)(=O)CCc2ccc(S(=O)(=O)O)cc2)nc2c1ncn2[C@@H]1O[C@H](CO)[C@@H](O)[C@H]1O : reported Ki = ?
> 10 µM

---

Known Ki of a selection of compounds
system: Adenosine receptor A2b (Homo sapiens)
Sequence (P29275 whole entry): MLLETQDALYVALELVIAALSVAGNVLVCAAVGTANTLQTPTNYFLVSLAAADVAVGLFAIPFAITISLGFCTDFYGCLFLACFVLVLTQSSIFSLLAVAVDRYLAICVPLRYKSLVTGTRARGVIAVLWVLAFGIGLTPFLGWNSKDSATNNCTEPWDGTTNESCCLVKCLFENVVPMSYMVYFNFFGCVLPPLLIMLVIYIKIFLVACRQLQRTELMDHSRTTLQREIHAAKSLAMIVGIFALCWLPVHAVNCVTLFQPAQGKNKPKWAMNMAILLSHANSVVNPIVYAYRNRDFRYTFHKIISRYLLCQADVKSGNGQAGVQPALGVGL
assaySummary: Displacement of [3H]PSB-603 from human recombinant adenosine A2B receptor expressed in CHO cells after 75 mins by liquid scintillation assay

Entry Nc1nc(SCCc2ccc(C(=O)O)cc2)nc2c1ncn2[C@@H]1O[C@H](CO)[C@@H](O)[C@H]1O : reported Ki = ?
> 10 µM

Here's the next entry for you.
Entry Nc1nc(SCCc2ccc(S(=O)(=O)O)cc2)nc2c1ncn2[C@@H]1O[C@H](CO)[C@@H](O)[C@H]1O : reported Ki = ?
> 10 µM

---

system: Adenosine receptor A2a (Homo sapiens, UniProt P29274)
Sequence (P29274 whole entry): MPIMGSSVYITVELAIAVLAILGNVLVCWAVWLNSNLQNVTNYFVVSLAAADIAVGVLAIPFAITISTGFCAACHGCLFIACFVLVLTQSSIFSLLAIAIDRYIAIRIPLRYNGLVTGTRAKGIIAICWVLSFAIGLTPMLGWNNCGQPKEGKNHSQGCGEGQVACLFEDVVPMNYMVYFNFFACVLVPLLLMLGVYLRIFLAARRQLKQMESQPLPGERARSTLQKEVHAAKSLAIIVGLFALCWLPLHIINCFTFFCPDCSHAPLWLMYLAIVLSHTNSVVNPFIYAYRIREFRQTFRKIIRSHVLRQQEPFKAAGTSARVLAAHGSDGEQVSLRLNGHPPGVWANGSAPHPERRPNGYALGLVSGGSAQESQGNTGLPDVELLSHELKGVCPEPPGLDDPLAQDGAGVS
assaySummary: Agonist activity at human adenosine A2A receptor expressed in CHO-K1 cells by cAMP accumulation assay
parameterMeasured: EC50 (nM)
Please reply with the bare figure in nM and do not write the unit itself.

Provide the documented EC50 with Adenosine receptor A2a (Homo sapiens, UniProt P29274) as the system for Nc1nc(SCCc2ccc(S(=O)(=O)O)cc2)nc2c1ncn2[C@@H]1O[C@H](CO)[C@@H](O)[C@H]1O
117

---

system: Adenosine receptor A2a (Rattus norvegicus)
Sequence (P30543 whole entry): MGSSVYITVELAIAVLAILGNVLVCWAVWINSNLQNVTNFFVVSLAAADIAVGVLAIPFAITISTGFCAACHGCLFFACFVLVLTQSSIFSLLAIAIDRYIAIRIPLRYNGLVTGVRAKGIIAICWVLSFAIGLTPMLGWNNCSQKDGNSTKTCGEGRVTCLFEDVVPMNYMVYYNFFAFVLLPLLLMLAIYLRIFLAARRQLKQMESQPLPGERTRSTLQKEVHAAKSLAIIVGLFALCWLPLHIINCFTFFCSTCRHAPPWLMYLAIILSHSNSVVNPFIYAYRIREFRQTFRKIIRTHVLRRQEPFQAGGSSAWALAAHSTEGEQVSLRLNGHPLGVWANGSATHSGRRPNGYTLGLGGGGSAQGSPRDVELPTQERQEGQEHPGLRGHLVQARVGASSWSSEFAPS
assaySummary: Displacement of [3H]MSX-2 from adenosine A2A receptor in rat brain striatum
Assay type: tissue-based
pKi: −log10 of the molar value.
parameterMeasured: pKi

Entry Nc1nc(SCC(=O)O)nc2c1ncn2[C@@H]1O[C@H](CO)[C@@H](O)[C@H]1O : reported pKi = ?
< 5.00

---

system: Adenosine receptor A1 (Homo sapiens, UniProt P30542)
Sequence (P30542 whole entry): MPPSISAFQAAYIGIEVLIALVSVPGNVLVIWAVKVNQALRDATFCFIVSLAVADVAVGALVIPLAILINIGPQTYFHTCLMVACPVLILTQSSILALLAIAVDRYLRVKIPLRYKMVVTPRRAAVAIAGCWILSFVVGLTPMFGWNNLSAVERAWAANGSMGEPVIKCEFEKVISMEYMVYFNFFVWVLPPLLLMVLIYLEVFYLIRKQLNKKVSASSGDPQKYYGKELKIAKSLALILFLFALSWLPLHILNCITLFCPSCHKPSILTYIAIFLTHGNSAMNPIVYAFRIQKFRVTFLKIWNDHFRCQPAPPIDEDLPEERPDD
assaySummary: Displacement of [3H]CCPA from human recombinant adenosine A1 receptor
Known Ki of a selection of compounds

Answered examples (2):
Entry Nc1nc(S(=O)(=O)CCc2ccc(S(=O)(=O)O)cc2)nc2c1ncn2[C@@H]1O[C@H](CO)[C@@H](O)[C@H]1O : reported Ki = ?
545 nM

Entry Nc1nc(SCCc2ccc(C(=O)O)cc2)nc2c1ncn2[C@@H]1O[C@H](CO)[C@@H](O)[C@H]1O : reported Ki = ?
404 nM

New cases:
Entry Nc1nc(SCCc2ccc(S(=O)(=O)O)cc2)nc2c1ncn2[C@@H]1O[C@H](CO)[C@@H](O)[C@H]1O : reported Ki = ?
541 nM
